Every entry's value here was drawn from patent US20220177476A1.

Assay: Approximate solubility of Form I by stepwise dilution of a suspension
Format: physicochemical
Conditions: THF:water 9:1, organic solvent or mixture, thermodynamic from solid; read-out: Solubility [S, mg/mL]
Procedure: Form I was also tested with respect to solubilities in various water-solvent mixtures and non-aqueous solvents. Solubility studies were conducted by a stepwise dilution of a suspension of about 10 mg of Form I in 0.1 mL of analytical grade solvent. Solubility values are estimated approximations and are subject to variable experimental error.
METRIC: solubility

| MOLECULE | ASSAY_RESULT |
| --- | --- |
| CC#CC(=O)N1CCC[C@H]1c1nc(-c2ccc(C(=O)Nc3ccccn3)cc2)c2c(N)nccn12 [Form I] | > 50 mg/mL |

====

assay: pKa by ultraviolet (UV) spectrometric titration; assay type: physicochemical; details: aqueous solution, free base, Table 9; read-out: pKa

| INPUT_SMILES | pKa |
| --- | --- |
| CC#CC(=O)N1CCC[C@H]1c1nc(-c2ccc(C(=O)Nc3ccccn3)cc2)c2c(N)nccn12 | ~5.7 |

====

test: Solubility of Form I by HPLC in solvents and water-solvent mixtures; assay type: physicochemical; conditions: organic solvent or mixture, thermodynamic from solid; ethanol-water 96:4, 0° C.; read-out: Solubility (S, mg/mL)
METRIC: solubility (mg/mL)

| COMPOUND | ASSAY_RESULT |
| --- | --- |
| CC#CC(=O)N1CCC[C@H]1c1nc(-c2ccc(C(=O)Nc3ccccn3)cc2)c2c(N)nccn12 [Form I] | 6.7 |
